- MEASUREMENT NOTES: pKa measurement of the cationic lipid (TNS fluorescence vs pH)
- Format: physicochemical
- CONDITIONS: probe TNS (fluorescent probe), Table 4; pKa of the cationic lipid of formula (I)
ASSAY METRIC: pKa
// keep it numeric: no unit symbol after the value

>  <COMPOUND>
CCCCCCCC(=O)OCC(COC(=O)CCCCCCC)COc1cc(CN(C)C)cc(OCC(COC(=O)CCCCCCC)COC(=O)CCCCCCC)c1

>  <QUANTITATIVE RESULT>
6.27

$$$$
>  <COMPOUND>
CCCCCCCC(=O)OCCCCCC(=O)OCc1cc(COC(=O)CCCCCOC(=O)CCCCCCC)cc(CN(C)C)c1

>  <QUANTITATIVE RESULT>
5.72

$$$$
>  <COMPOUND>
CCCCC/C=C\C/C=C\CCCCCCCCOc1cc(COC(=O)CCN(C)C)cc(OCCCCCCCC/C=C\C/C=C\CCCCC)c1

>  <QUANTITATIVE RESULT>
6.11

$$$$

[ask] Any idea what pKa was measured for CCCCC/C=C\C/C=C\CCCCCCCC(=O)OCCCC(=O)OCc1cc(COC(=O)CCCOC(=O)CCCCCCC/C=C\C/C=C\CCCCC)cc(CN(C)C)c1 ?
[reply] 6.03

Source of measurements: patent US9504747B2
